Provenance of the data: patent US7476650B2

# system-under-test: chymotrypsin-like activity of purified bovine erythrocyte 20S proteasome (Bos taurus)
# Construct: from tissue; host or cells: bovine erythrocytes (red blood cells)
# assay-notes: Enzyme kinetic assay, chymotrypsin-like activity (Suc-LLVY-AMC)
# Type: biochemical
# assay-context: Table 5
attribute-measured: kassoc = kobs/[I] (chymotrypsin-like activity inhibition) (M⁻¹ s⁻¹)
Just the number in M⁻¹ s⁻¹, nothing appended.

1) CC(=O)N[C@@H](C)C(=O)N[C@@H](CC(C)C)C(=O)N[C@@H](CC(C)C)C(=O)N[C@@H](CC(C)C)C(=O)[C@@]1(C)CO1 [Ac-ALLL-epoxide] ... 5300

Given the molecule CC(=O)N[C@@H](CC(C)C)C(=O)N[C@@H](Cc1ccccc1)C(=O)N[C@@H](CC(C)C)C(=O)N[C@@H](CC(C)C)C(=O)[C@@]1(C)CO1 [Ac-LFLL-epoxide] , what is its reported kassoc = kobs/[I] (chymotrypsin-like activity inhibition)?
8500

And then CC(=O)N[C@@H](CC(C)C)C(=O)N[C@@H](C)C(=O)N[C@@H](CC(C)C)C(=O)N[C@@H](CC(C)C)C(=O)[C@@]1(C)CO1 [Ac-LALL-epoxide] , what is it?
1300
